- study-system: IL15-IL15 receptor (Homo sapiens) (UniProt P40933+Q13261)
- Sequence (P40933 49-162 limits assumed): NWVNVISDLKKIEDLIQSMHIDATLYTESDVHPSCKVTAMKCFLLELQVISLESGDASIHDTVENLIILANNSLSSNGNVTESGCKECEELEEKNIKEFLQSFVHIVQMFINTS
- Sequence (Q13261 31-267 partner limits assumed): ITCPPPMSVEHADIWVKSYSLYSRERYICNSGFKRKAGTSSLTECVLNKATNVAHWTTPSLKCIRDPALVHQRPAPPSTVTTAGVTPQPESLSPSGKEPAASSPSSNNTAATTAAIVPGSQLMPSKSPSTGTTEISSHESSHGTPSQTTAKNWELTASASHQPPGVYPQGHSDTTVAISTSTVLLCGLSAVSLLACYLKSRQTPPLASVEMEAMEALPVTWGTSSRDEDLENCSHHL
- assay-procedure: Inhibition of IL-15 (unknown origin)/IL-15Ralpha interaction in human PBMC cells assessed as reduction of IL-17 synthesis preincubated for 30 mins followed by IL-15 addition measured after 48 hrs by ELISA
- Assay type: cell-based
Active and inactive are the calls of the source. No cut-off for these calls is given here.
One label from this list, please: true = active, false = inactive

# count of solved cases: 8
What did the test return for "NC(N)=NC(=O)CNCC(=O)N=C(N)N" ? true

What did the test return for O=C(O)c1ccc(CNC(=O)C2CC=CCC2C(=O)O)cc1 (stereo unspecified) ? false

What did the test return for "O=C(O)c1ccc(CSc2nnnn2C2CCCCC2)cc1" ? false

What did the test return for O=C(O)Cc1ccc(NC(=O)C2CC=CCC2C(=O)O)cc1 (stereo unspecified) ? false

What did the test return for "COC(=O)CCC(=O)NCc1ccc(C(=O)OC)cc1" ? true

What did the test return for "O=C(O)CCC(=O)NCc1ccc(C(=O)O)cc1" ? false

What did the test return for "NCCC(=O)NCCc1c[nH]cn1" ? true

What did the test return for "COc1ccc(-n2nnnc2S(=O)(=O)Cc2ccc(C(=O)O)cc2)cc1" ? false

Continuing:
What did the test return for "Cc1nnc(SCC2=C(C(=O)O)N3C(=O)[C@@H](NC(=O)Cn4cnnn4)[C@H]3SC2)s1" ? true

What did the test return for "CCC(=O)Nc1ccc(Cc2ccc(NC(=O)CC)c(C(=O)O)c2)cc1C(=O)O" ? false

What did the test return for O=C(O)c1ccc(CNC(=O)C2CCCCC2C(=O)O)cc1 (stereo unspecified) ? true
